Molecular target: HLA-A*26:03
Assay: IEDB peptide-MHC binding, purified MHC/competitive/fluorescence; filed as Kd, often an IC50 or EC50 that approximates it; bounds were set here for any values at or beyond the usual limits of such assays
Conditions: source organism: Candida albicans SC5314
observable: Kd

item_sequence: RVYNNTARY
observable: Kd
result: ≥ 20 µM

---

Target: HLA-A*11:01
Experiment: IEDB peptide-MHC binding, purified MHC/competitive/fluorescence; filed as Kd, often an IC50 or EC50 that approximates it; bounds were set here for any values at or beyond the usual limits of such assays
Details: source organism: Vibrio vulnificus YJ016
observable: Kd

item_sequence: PHPVVVRTL
assay_system: HLA-A*11:01
result: ≥ 20 µM
